Sourced from patent US20240197706A1

ASSAY OVERVIEW: AT1001-045 study: plasma migalastat bioavailability of 150 mg migalastat HCl capsule with caffeine and sweetener beverages relative to water
Assay type: in vivo, human (healthy subjects)
EXPERIMENTAL PARAMETERS: both sexes, human, plasma, po, 150 mg, single oral 150 mg migalastat HCl capsule, fasted; with Sucrose drink; read-out: Cmax GeoMean
MEASURED ATTRIBUTE: Cmax (ng/mL)

>>> quantitative_readout("OC[C@H]1NC[C@H](O)[C@@H](O)[C@H]1O")
1260

* * *

ASSAY OVERVIEW: AT1001-045 study: plasma migalastat bioavailability of 150 mg migalastat HCl capsule with caffeine and sweetener beverages relative to water
Assay type: in vivo, human (healthy subjects)
EXPERIMENTAL PARAMETERS: both sexes, human, plasma, po, 150 mg, single oral 150 mg migalastat HCl capsule, fasted; with Acesulfame K drink; read-out: tmax Median
MEASURED ATTRIBUTE: Tmax (h)

>>> quantitative_readout("OC[C@H]1NC[C@H](O)[C@@H](O)[C@H]1O [migalastat]")
4

* * *

ASSAY OVERVIEW: AT1001-045 study: plasma migalastat bioavailability of 150 mg migalastat HCl capsule with caffeine and sweetener beverages relative to water
Assay type: in vivo, human (healthy subjects)
EXPERIMENTAL PARAMETERS: both sexes, human, plasma, po, 150 mg, single oral 150 mg migalastat HCl capsule, fasted; with water (reference); read-out: t1/2 Mean (converted)
MEASURED ATTRIBUTE: half-life (h)

>>> quantitative_readout("OC[C@H]1NC[C@H](O)[C@@H](O)[C@H]1O")
7.5

* * *

ASSAY OVERVIEW: AT1001-045 study: plasma migalastat bioavailability of 150 mg migalastat HCl capsule with caffeine and sweetener beverages relative to water
Format: in vivo, human (healthy subjects)
EXPERIMENTAL PARAMETERS: both sexes, human, plasma, po, 150 mg, single oral 150 mg migalastat HCl capsule, fasted; with Sucrose drink; read-out: t1/2 Mean (converted)
MEASURED ATTRIBUTE: half-life (h)

>>> quantitative_readout("OC[C@H]1NC[C@H](O)[C@@H](O)[C@H]1O [migalastat]")
7.8

* * *

ASSAY OVERVIEW: AT1001-045 study: plasma migalastat bioavailability of 150 mg migalastat HCl capsule with caffeine and sweetener beverages relative to water
Assay type: in vivo, human (healthy subjects)
EXPERIMENTAL PARAMETERS: both sexes, human, plasma, po, 150 mg, single oral 150 mg migalastat HCl capsule, fasted; with Caffeine beverage; read-out: Cmax GeoMean
Description: The example describes the AT1001-045 study, which was an open-label study of the bioavailability, safety and tolerability of migalastat in combination with caffeine and sweeteners. […]
MEASURED ATTRIBUTE: Cmax (ng/mL)

>>> quantitative_readout("OC[C@H]1NC[C@H](O)[C@@H](O)[C@H]1O")
529
